assay_info: P-glycoprotein substrates identified in KB-8-5-11 adenocarcinoma cell line, qHTS therapeutic library screen (AID 1346987); further: nearly all actives have a fitted effect of over 65% in size
conditions_used: KB-8-5-11 (P-gp overexpressing) viability, CellTiter-Glo, 72 h; series mostly up to 44.5 µM
Results filed as inconclusive are left out. Calls of active or inactive are those of the source. The call rests on the fitted dose curve; in most records, active means well fitted inhibition curve with a large enough effect; inconclusive means small, poorly fitted or top-dose-only effect; inactive means flat fitted curve, though single readings scatter.
Answer with one of the outcomes active, inactive

# compound, label_class
data = [
    ("CN1CCN(C2CCC(n3cc(-c4ccc(Oc5ccccc5)cc4)c4c(N)ncnc43)CC2)CC1 (centres undefined)", "active"),
    ("CN(C)c1nc(NC2CCC(NC(=O)c3ccc(F)c(F)c3)CC2)nc2ccccc12 (centres undefined)", "active"),
    ("c1cc(OCCCN2CCCCC2)ccc1CN1CCCCC1", "inactive"),
]

From here, focus on the item given below.
Dear colleague, could you share the recorded outcome for CCOc1ccc(S(=O)(=O)n2c(C)nc3ccccc32)cc1 when you have a moment?
inactive

====

Tested on: NIH3T3
assay_info: Cytotoxic Profiling of Annotated Libraries Using Quantitative High-Throughput Screening (AID 1296008); further: nearly all actives have a fitted effect of over 60% in size
conditions_used: Five cell lines viability, CellTiter-Glo ATP luminescence, 48-72 h
Inconclusive results are not listed. Activity calls are given as the source filed them. Calls follow the shape of the dose curve; as a rule, active = well fitted inhibition curve with a large enough effect; inconclusive = small, poorly fitted or top-dose-only effect; inactive = flat fitted curve, though single readings scatter.
Answer with one of the outcomes true for active, false for inactive

Solved entries (count: 3):
# molecule, label_class
measured = [
    ("COc1ccc(CN2C(=O)C(=O)c3cc(S(=O)(=O)N4CCC[C@H]4COc4cccnc4)ccc32)cc1", "false"),
    ("C=C1C(=O)O[C@@H]2/C=C(\\C)C(=O)/C=C/[C@](C)(O)C[C@@H](OC(=O)C(C)C)[C@@H]12", "true"),
    ("CCN1CCN(Cc2ccc(NC(=O)c3ccc(C)c(/C=C/c4cnc5[nH]ccc5c4OC)c3)cc2C(F)(F)F)CC1", "true"),
]

Dear colleague, could you share the recorded outcome for C[C@@H]1C[C@H]2O[C@@H]2/C=C\C=C\C(=O)Cc2c(Cl)c(O)cc(O)c2C(=O)O1 when you have a moment?
true

Dear colleague, could you share the recorded outcome for C=C1CN(Cc2ccc(C(=O)Nc3ccccc3N)cc2)C(=O)c2ccccc21 when you have a moment?
true

Dear colleague, could you share the recorded outcome for COc1cc2c(cc1OC)[C@@H]1[C@H](O)[C@@H](OC)C=C3CCN(C2)[C@H]31 when you have a moment?
true

Dear colleague, could you share the recorded outcome for O=C(NCC(O)CO)c1ccncc1Nc1ccc(I)cc1F (stereo not given) when you have a moment?
true

Dear colleague, could you share the recorded outcome for C=C1CCC2C(C)(COC(C)=O)CCCC2(C)C1CCC(C)CC(=O)O (stereo not given) when you have a moment?
false

Dear colleague, could you share the recorded outcome for Cc1ccc(NC(=O)Nc2cc(C(F)(F)F)ccc2F)cc1Nc1ccc2c(c1)NC(=O)/C2=C\c1ccc[nH]1 when you have a moment?
true

====

System: PA-1
assay_info: Primary qHTS to identify gynecologic anti-cancer compounds using libraries of approved drugs and bioactive compounds (AID 1345084); further: nearly all actives have a fitted effect of over 55% in size
conditions_used: Gynecologic cancer cell panel viability, ATPlite luminescence, 48 h; series mostly up to 57.5 µM
Results filed as inconclusive are left out. Activity calls are given as the source filed them. Calls follow the shape of the dose curve; as a rule, active = well fitted cell-killing curve with a large enough effect; inconclusive = small, poorly fitted or top-dose-only effect, or effect the other way; inactive = flat fitted curve, though single readings scatter.
Answer with one of the outcomes y for active, n for inactive

Solved entries (count: 6):
# molecule, label_class
rows = [
    ("COC(=O)C1=CO[C@@H](O[C@@H]2O[C@H](CO)[C@@H](O)[C@H](O)[C@H]2O)[C@@H]2C(CO)=CC[C@]12O", "n"),
    ("O=C1N=C(N2CCOCC2)CN1c1ccc(Cl)cc1", "n"),
    ("Cc1cc(Cl)ccc1COc1ccnn1-c1cc(C(=O)O)ccn1", "n"),
    ("Cc1oc2ccccc2c1CNC(=O)NCc1cccs1", "n"),
    ("COC(=O)C1=CO[C@@H](O[C@@H]2O[C@H](CO)[C@@H](O)[C@H](O)[C@H]2O)[C@H]2[C@@H]1C=C[C@@]21C=C([C@H](C)O)C(=O)O1", "n"),
    ("O=C(OCC1=CC(O)C2C=CO[C@@H](O[C@@H]3O[C@H](CO)[C@@H](O)[C@H](O)[C@H]3O)C12)c1ccccc1 (stereo partly drawn)", "n"),
]

Dear colleague, could you share the recorded outcome for CS(=O)(=O)N(CC(=O)NCC1CC1)c1cc(C(F)(F)F)ccc1Cl when you have a moment?
n

Dear colleague, could you share the recorded outcome for COC(=O)C1(C)CCC2(C(=O)O)CCC3(C)C(=CCC4C5(C)CC(O)C(OC6OCC(O)C(O)C6O)C(C)(CO)C5CCC43C)C2C1 (stereo not drawn) when you have a moment?
n

Dear colleague, could you share the recorded outcome for Cc1nc(Nc2n[nH]c3c2CN(C(=O)NC(CN(C)C)c2ccccc2)C3(C)C)c2sccc2n1 (stereo not drawn) when you have a moment?
y

Dear colleague, could you share the recorded outcome for CC1CCC2(C(=O)O)CCC3(C)C(=CCC4C5(C)CCC(OC(=O)/C=C/c6ccccc6)C(C)(C)C5CCC43C)C2C1C (stereo not drawn) when you have a moment?
n

Dear colleague, could you share the recorded outcome for C=C1CCC2C(C)(C(=O)OC)CCCC2(C)C1CCC(C)CC(=O)O (stereo not drawn) when you have a moment?
n

Dear colleague, could you share the recorded outcome for C[C@@H]1C(=O)O[C@H]2[C@@H](O)C34[C@H]5C[C@@H](C(C)(C)C)C36[C@@H](OC(=O)[C@@H]6O)O[C@@]4(C(=O)O5)[C@@]12O (stereo partly drawn) when you have a moment?
n

Dear colleague, could you share the recorded outcome for COc1cc(O)cc(C)c1C(=O)OC1C(CO)OC(OC2C(O)C(O)C(O)C(O)C2O)C(O)C1O (stereo not drawn) when you have a moment?
n
